Assayed Target: T1, β-catenin (UniProt P35222 134-665, limits assumed, biotinylated in the SPR and plate assays)
T1 construct: also called beta catenin; biotinylated β-catenin
T1 sequence (looked up): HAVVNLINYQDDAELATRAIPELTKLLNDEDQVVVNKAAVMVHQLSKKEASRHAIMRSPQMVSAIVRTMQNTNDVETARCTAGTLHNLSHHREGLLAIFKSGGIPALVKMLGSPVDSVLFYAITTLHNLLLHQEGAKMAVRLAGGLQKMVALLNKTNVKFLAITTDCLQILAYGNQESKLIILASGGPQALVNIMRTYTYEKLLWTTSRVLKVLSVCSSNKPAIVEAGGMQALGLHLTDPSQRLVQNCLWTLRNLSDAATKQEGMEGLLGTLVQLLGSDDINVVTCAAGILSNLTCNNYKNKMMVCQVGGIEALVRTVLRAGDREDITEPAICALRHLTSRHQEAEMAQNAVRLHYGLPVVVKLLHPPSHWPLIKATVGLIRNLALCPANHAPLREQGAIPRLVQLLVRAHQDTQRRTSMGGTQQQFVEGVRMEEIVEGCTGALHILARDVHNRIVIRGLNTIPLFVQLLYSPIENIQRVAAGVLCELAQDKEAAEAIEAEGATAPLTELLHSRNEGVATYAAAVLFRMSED
Experimental Protocol: competitive FP
Bridges are numbered along the chain shown (N, C = ends). Where no end group is shown, it is not given here. [ ]: non-standard residue; d: D form. NMeA = CN[C@@H](C)C(=O)O
Parameter: Kd

Some entries whose results are on file:
Binder	Kd
H-HWILISFWG-OH [SEQ ID NO: 126]	≤ 400 nM
W[NMeA]QSILDEHVQKVWG-NH2 (lactam 8-12; not fully specified (N-terminus); printed as H23C11C(O)NH-W-NmeA-QSILDE*HVQK*VWG-NH2) [SEQ ID NO: 439]	≤ 400 nM

Now examine the next entry.
The reported Kd of the binder KWFLICAWD (not fully specified; cyclo-H2N-K(GABA*)WFLICAWD*-COOH) [SEQ ID NO: 247] was ≤ 400 nM

These data points were gathered from patent US20260098059A1.
